Tested on: 556581-035-R-J1-PDC complex spheroid growth;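 further: spheroids exposed to agents for 7 days before viability read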
PROCEDURE SUMMARY: Anticancer human tumor 556581-035-R-J1-PDC patient-derived ovarian carcinoma cell line growth inhibition [Asc]
CONDITION PARAMETERS: second compound 0.1 µM; first compound 0.01 µM; hits give low values
MEASURED QUANTITY: viability, T/C (%)
Respond numerically; units are % and should not be typed.

Previously resolved entries follow.
COMPOUND	viability, T/C / %
CNC(C)C(=O)NC1CN(S(=O)(=O)c2cccc(S(=O)(=O)N3CCC4CCC(C(=O)NC(c5ccccc5)c5ccccc5)N4C(=O)C(NC(=O)C(C)NC)C3)c2)CCC2CCC(C(=O)NC(c3ccccc3)c3ccccc3)N2C1=O (centres undefined) + Cc1c(S(C)(=O)=O)c(-c2cc(F)cc(N3CCN(c4ccc(NS(=O)(=O)c5ccc(NC(CCN6CCC(C(=O)OCCCP(=O)(O)O)CC6)CSc6ccccc6)c(S(=O)(=O)C(F)(F)F)c5)cc4)CC3)c2)c(-c2ccc(Cl)cc2)n1C(C)C	69.5
O=C(c1ccc(F)c(F)c1Nc1ccc(I)cc1F)N1CC(O)([C@@H]2CCCCN2)C1 + Cc1c(S(C)(=O)=O)c(-c2cc(F)cc(N3CCN(c4ccc(NS(=O)(=O)c5ccc(NC(CCN6CCC(C(=O)OCCCP(=O)(O)O)CC6)CSc6ccccc6)c(S(=O)(=O)C(F)(F)F)c5)cc4)CC3)c2)c(-c2ccc(Cl)cc2)n1C(C)C	66.8
O=C(c1ccc(F)c(F)c1Nc1ccc(I)cc1F)N1CC(O)([C@@H]2CCCCN2)C1 + CNC(C)C(=O)NC1CN(S(=O)(=O)c2cccc(S(=O)(=O)N3CCC4CCC(C(=O)NC(c5ccccc5)c5ccccc5)N4C(=O)C(NC(=O)C(C)NC)C3)c2)CCC2CCC(C(=O)NC(c3ccccc3)c3ccccc3)N2C1=O	64.5

With those in mind, consider the next compound.
Input: Return reported viability, T/C. Input compound: NC1CCC(NC2CC2c2ccccc2)CC1 (centres undefined) + CNC(C)C(=O)NC1CN(S(=O)(=O)c2cccc(S(=O)(=O)N3CCC4CCC(C(=O)NC(c5ccccc5)c5ccccc5)N4C(=O)C(NC(=O)C(C)NC)C3)c2)CCC2CCC(C(=O)NC(c3ccccc3)c3ccccc3)N2C1=O
Output: 64.5
